# Test system: HT29 colon
# measurement.description: NCI tumour cell line growth inhibition, 48 h
measured.metric: TGI (µM)
Number only, in µM; omit the unit.

Query: Missing value: TGI, HT29 colon, entry COC(=O)C1(Cc2ccccc2)Cc2cc3c(cc2C1=O)CCC3 (configuration not stated) . Fill in?
Response: 36

Query: Missing value: TGI, HT29 colon, entry O=C(NS(=O)(=O)Nc1ccc(Cl)cc1)OCc1ccc(Cl)cc1Cl . Fill in?
Response: 51.2

Query: Missing value: TGI, HT29 colon, entry Oc1ccccc1C(c1cc2c(cc1O)OCO2)N1CCOCC1 (configuration not stated) . Fill in?
Response: 35.2

Query: Missing value: TGI, HT29 colon, entry CN(C)CC(=O)N1CCC(c2ccc(NC(=O)c3ncc(C#N)[nH]3)c(C3=CCCCC3)c2)CC1 . Fill in?
Response: 10.2

Query: Missing value: TGI, HT29 colon, entry CCOC(=O)c1cc(=C2\CCN(CC(C)CC)C2=S)/c(=C(/O)CC)[nH]1 (configuration not stated) . Fill in?
Response: 48

Query: Missing value: TGI, HT29 colon, entry O=c1oc2ccccc2c(O)c1C(c1cc(OCc2ccccc2)cc(OCc2ccccc2)c1)c1c(O)c2ccccc2oc1=O . Fill in?
Response: 33.5

Query: Missing value: TGI, HT29 colon, entry NC(N)=N/N=C(/c1ccccc1)c1ccc(F)cc1 . Fill in?
Response: 2.63

Query: Missing value: TGI, HT29 colon, entry CCCCN(CC)c1nc(C)nc2c1c(C)c(C)n2-c1c(C)cc(C)cc1C . Fill in?
Response: 22.6

Query: Missing value: TGI, HT29 colon, entry Cc1cc2nc3c4cc(Cl)ccc4n(CCN(C)C)c3nc2cc1C . Fill in?
Response: 3.66

Query: Missing value: TGI, HT29 colon, entry CN=C(N)N/N=C(\c1ccccc1)c1ccc(Br)cc1 . Fill in?
Response: 1.72

Query: Missing value: TGI, HT29 colon, entry O=C1CC2(C[C@@H]3CCCCCCCCC[C@@H](C3)C2)N1 (some centres not stated) . Fill in?
Response: 26.9

###

# Test system: M14 melanoma
# measurement.description: NCI tumour cell line growth inhibition, 48 h
measured.metric: TGI

Query: Missing value: TGI, M14 melanoma, entry CC(=O)OCC1OC(N2C(=O)/C(=C\c3ccc(Cl)cc3)C(N)=Nc3ccccc32)C(OC(C)=O)C(OC(C)=O)C1OC(C)=O (stereo not given) . Fill in?
Response: 37.4 µM

Query: Missing value: TGI, M14 melanoma, entry O=C(O)c1ccc(NC(c2ccccc2)c2ccc3cccnc3c2O)cc1 (stereo not given) . Fill in?
Response: > 85.5 µM

Query: Missing value: TGI, M14 melanoma, entry CCN(CC)CCn1c2cc3c(cc2c(=O)c2cccnc21)OCCO3 . Fill in?
Response: > 10 µM

Query: Missing value: TGI, M14 melanoma, entry CSC1=Nc2ccccc2N(C)c2c1c(-c1ccccc1)nn2C . Fill in?
Response: > 100 µM

Query: Missing value: TGI, M14 melanoma, entry CCCN=C1CC(C)Nc2ccccc2N1 (stereo not given) . Fill in?
Response: > 100 µM

Query: Missing value: TGI, M14 melanoma, entry Cc1cn(C2C=CC(COP(=O)(OCC3=CC(=O)c4ccccc4C3=O)N(C)CCCCCl)O2)c(=O)[nH]c1=O (stereo not given) . Fill in?
Response: 2.84 µM

Query: Missing value: TGI, M14 melanoma, entry COC1(C(=O)N2Cc3nc(Cl)nc(N[C@H](C)c4cc(N)cc(C(F)(F)F)c4)c3C2)CCOCC1 . Fill in?
Response: 40.6 µM

Query: Missing value: TGI, M14 melanoma, entry C=CCN(CC=C)Cn1c(=S)sc2ccccc21 . Fill in?
Response: > 100 µM

Query: Missing value: TGI, M14 melanoma, entry Cc1ccn2c3c(c(C(=O)O)c2c1)C(=O)c1ccccc1C3=O . Fill in?
Response: 2.64 µM

Query: Missing value: TGI, M14 melanoma, entry CC12CC(c3ccccc3O1)C(C(=O)Nc1ccc(F)cc1)C(=O)N2 (stereo not given) . Fill in?
Response: > 100 µM

Query: Missing value: TGI, M14 melanoma, entry CC(=O)NC1C(OCc2ccccc2)OC(CO)C(O)C1OCC(=O)N[C@@H](C)C(=O)N[C@H](CCC(=O)NCCNCCNc1c2ccccc2nc2cccc([N+](=O)[O-])c12)C(N)=O (stereo not given in full) . Fill in?
Response: > 100 µM

Query: Missing value: TGI, M14 melanoma, entry COc1cc2oc(-c3ccc(O)cc3)c(OC3OC(C)C(O)C(O)C3O)c(=O)c2c(O)c1OC (stereo not given) . Fill in?
Response: > 100 µM

Query: Missing value: TGI, M14 melanoma, entry COc1ccc2c(c1)c1c(n2CCN2CCOCC2)-c2ccccc2CC1 . Fill in?
Response: > 100 µM

Query: Missing value: TGI, M14 melanoma, entry CCOC(=O)C(OCC1CC=CCC1)Sc1ccccc1 (stereo not given) . Fill in?
Response: > 100 µM

Query: Missing value: TGI, M14 melanoma, entry O=C1NC2(CCCC2)C(=O)C12CCCC2 . Fill in?
Response: > 100 µM

Query: Missing value: TGI, M14 melanoma, entry N#Cc1c(NC(=O)c2cccc(C(F)(F)F)c2)sc2c1CCC(=O)C2 . Fill in?
Response: 2.22 µM

Query: Missing value: TGI, M14 melanoma, entry COc1cc2ncn(-c3cc(OCc4ccccc4Cl)c(C(N)=O)s3)c2cc1OC . Fill in?
Response: > 25 µM

Query: Missing value: TGI, M14 melanoma, entry CC(C)C(Sc1nc(-c2ccccc2)c(-c2ccccc2)[nH]1)C(=O)NNC(=S)Nc1ccccc1 (stereo not given) . Fill in?
Response: 30.6 µM

Query: Missing value: TGI, M14 melanoma, entry CN=C(N)N/N=C(\c1ccccc1)c1ccc(Br)cc1 . Fill in?
Response: 0.872 µM

Query: Missing value: TGI, M14 melanoma, entry COC(=O)C(c1[nH]nc2ccccc12)C(C(=O)OC)c1[nH]nc2ccccc12 (stereo not given) . Fill in?
Response: > 100 µM

###

# System: HCT-116 colon
# measurement.description: NCI tumour cell line growth inhibition, 48 h
measured.metric: TGI

Query: Bench note: what TGI did C=CC(=O)N[C@H]1C=C(C)c2c(-c3cnc4ccccc4c3)c3c(N)ncnc3n2C1 show?
Response: 34.7 µM

Query: Bench note: what TGI did O=C1CCCN(c2ccccc2)N1 show?
Response: > 100 µM

Query: Bench note: what TGI did CCc1c2c(nc3cc4c(cc13)OCO4)-c1cc3c(c(=O)n1C2)COC(=O)[C@]3(O)CC show?
Response: > 100 µM

Query: Bench note: what TGI did COc1cc2c(c3c1C=CCO3)C(=O)c1ccccc1C2=O show?
Response: > 100 µM

Query: Bench note: what TGI did COC1OC(=O)[C@H]2O[N+]([O-])=C(C)[C@@H]12 (stereo partly specified) show?
Response: > 100 µM

Query: Bench note: what TGI did O=C1NC2(CCCC2)C(=O)C12CCCC2 show?
Response: > 100 µM

###

Please go through the items and note down their TGI.
# System: ACHN renal
# measurement.description: NCI tumour cell line growth inhibition, 48 h

Query: Bench note: what TGI did CCN1CCN(c2nc(NCCCNc3ccnc4cc(Cl)ccc34)c3ccccc3n2)CC1 show?
Response: 4.54 µM

Query: Bench note: what TGI did c1ccc([P+](CCNCCNCC[P+](c2ccccc2)(c2ccccc2)c2ccccc2)(c2ccccc2)c2ccccc2)cc1 show?
Response: > 100 µM

Query: Bench note: what TGI did CCOC(=O)c1sc2nc(SC)nc3c2c1N=CN3c1ccc(Br)cc1 show?
Response: > 100 µM

Query: Bench note: what TGI did c1sc(NC2=NCCO2)c2c1CCCC2 show?
Response: > 100 µM

Query: Bench note: what TGI did CN1CCN(Cc2ccc(C(=O)Nc3cncc(C#Cc4cnc(N)c5ccccc45)c3)cc2C(F)(F)F)CC1 show?
Response: 2.97 µM

Query: Bench note: what TGI did Cc1cccc(N2C(=O)C3ON(C(C(N)=O)c4ccccc4)C(c4c5ccccc5c(Cl)c5ccccc45)C3C2=O)c1C (stereo not given) show?
Response: 19.7 µM

Query: Bench note: what TGI did CC(C)CC(N)C(=O)OCN1C(=O)C2C3C=CC(C2C1=O)C1C2C(=O)N(COC(=O)C(N)CC(C)C)C(=O)C2C31 (stereo not given) show?
Response: > 100 µM

Query: Bench note: what TGI did CC1(C)N=C(N)N=C(N)N1c1ccc(CCCCc2ccc(S(=O)(=O)F)cc2)cc1 show?
Response: > 100 µM

Query: Bench note: what TGI did O=C(Cc1nc2ccc(C(=O)c3ccccc3)cc2[nH]c1=O)C(=O)Nc1ccc(Br)cc1 show?
Response: > 100 µM

Query: Bench note: what TGI did CC(=O)Nc1cccc(-n2c(=O)n(C3CC3)c(=O)c3c(Nc4ccc(I)cc4F)n(C)c(=O)c(C)c32)c1 show?
Response: > 79.5 µM

Query: Bench note: what TGI did Cc1c(Cl)ccc2c(=O)c3cccc(CC(=O)O)c3oc12 show?
Response: > 100 µM

Query: Bench note: what TGI did C=CC(=O)N[C@H]1C=C(C)c2c(-c3cnc4ccccc4c3)c3c(N)ncnc3n2C1 show?
Response: 16.8 µM

Query: Bench note: what TGI did COc1cc(COC(=O)N[C@H](C(=O)O)C(C)(C)C)c([N+](=O)[O-])cc1OC show?
Response: > 100 µM

Query: Bench note: what TGI did N#Cc1c(-c2cccs2)c2c(=S)[nH]c(=S)[nH]c2[nH]c1=S show?
Response: 67.6 µM

Query: Bench note: what TGI did CCOC(=O)CC1=Nc2ccccc2SC1 show?
Response: > 100 µM

Query: Bench note: what TGI did C=CC(=O)Nc1cccc(-c2nc(SC)nc(Nc3ccccc3OC)c2C#N)c1 show?
Response: 3.32 µM

Query: Bench note: what TGI did CSc1nc(SC)c2c(CN=[N+]=[N-])c(Br)n(Cc3ccccc3)c2n1 show?
Response: > 100 µM

Query: Bench note: what TGI did COc1cc(/C=C\[N+](=O)[O-])ccc1O show?
Response: 6.01 µM

Query: Bench note: what TGI did CN(C)/C(=N/C(=S)Nc1ccccc1)SCc1ccccc1 show?
Response: > 100 µM

Query: Bench note: what TGI did COc1cc2c3c(cccc3c1)C(=O)N(CCN1CCCC1)C2=O show?
Response: > 100 µM
